System: LG0567-F671-PDC KRAS tumor spheroid viability
Test: Anticancer human tumor LG0567-F671-PDC patient-derived lung adenocarcinoma cell line growth inhibition [KRAS2]; active = viability on the fitted dose curve at most 10% of control; inactive = the rest
Details: second compound 3.16 µM; first compound 0.0316 µM; spheroids with HUVEC and MSC
// classify into active, inactive

In: Hey, what did the test say about COc1cc(Nc2ncc3c(n2)-c2ccc(Cl)cc2C(c2c(F)cccc2OC)=NC3)ccc1C(=O)O + C=CC(=O)N1CCN(c2nc(OCC3CCCN3C)nc3c2CCN(c2cccc4cccc(C)c24)C3)CC1CC#N ?
Out: inactive

In: Hey, what did the test say about CC(=O)Nc1cccc(-n2c(=O)n(C3CC3)c(=O)c3c(Nc4ccc(I)cc4F)n(C)c(=O)c(C)c32)c1 + COc1cc2nc(C)nc(NC(C)c3cc(N)cc(C(F)(F)F)c3)c2cc1OC1CCOC1 ?
Out: active

* * *

Tested on: LG0567-F671-PDC KRAS tumor spheroid viability
Assay: Anticancer human tumor LG0567-F671-PDC cell line growth inhibition [KRAS2];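 also: drug exposure lasted seven days after spheroids formed for three days; 100% = DMSO vehicle control viability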
Conditions: second compound 10 µM; first compound 0.1 µM; stronger effect = lower value; spheroids with HUVEC and MSC
Please provide measured viability, T/C for the entries that follow.

# count of solved cases: 6
| molecule | viability, T/C |
| --- | --- |
| CC(=O)OC12COC1CC(O)C1(C)C(=O)C(O)C3=C(C)C(OC(=O)C(O)C(NC(=O)OC(C)(C)C)c4ccccc4)CC(O)(C(OC(=O)c4ccccc4)C21)C3(C)C (stereo unspecified) + CC1OCC2(CCN(c3cnc(Sc4ccnc(N)c4Cl)c(N)n3)CC2)C1N | 11.2% |
| CC1(C)CCC(CN2CCN(c3ccc(C(=O)NS(=O)(=O)c4ccc(NCC5CCOCC5)c([N+](=O)[O-])c4)c(Oc4cnc5[nH]ccc5c4)c3)CC2)=C(c2ccc(Cl)cc2)C1 + CC1OCC2(CCN(c3cnc(Sc4ccnc(N)c4Cl)c(N)n3)CC2)C1N | 15.4% |
| CCN1CCN(Cc2ccc(Nc3ncc(F)c(-c4cc(F)c5nc(C)n(C(C)C)c5c4)n3)nc2)CC1 + COc1cc2nc(C)nc(NC(C)c3cc(N)cc(C(F)(F)F)c3)c2cc1OC1CCOC1 | 9.45% |
| CC(C)n1nc(-c2ccc3oc(N)nc3c2)c2c(N)ncnc21 + C=CC(=O)N1CCN(c2nc(=O)n(-c3c(C)ccnc3C(C)C)c3nc(-c4c(O)cccc4F)c(F)cc23)C(C)C1 | 10.3% |
| COC(=O)c1ccc2c(C(=Nc3ccc(N(C)C(=O)CN4CCN(C)CC4)cc3)c3ccccc3)c(O)[nH]c2c1 + CNCc1ccccc1-c1csc(C(C)Nc2nc(C)nc3cc(OC)c(OC)cc23)c1 | 1.48% |
| Cn1ncnc1[C@H]1c2n[nH]c(=O)c3cc(F)cc(c23)N[C@@H]1c1ccc(F)cc1 + CNCc1ccccc1-c1csc(C(C)Nc2nc(C)nc3cc(OC)c(OC)cc23)c1 | 0.63% |

Hi team, please reply with viability, T/C for each item in this list.
1. CC(C)NCC(C(=O)N1CCN(c2ncnc3c2C(C)CC3O)CC1)c1ccc(Cl)cc1 (stereo unspecified) + CNCc1ccccc1-c1csc(C(C)Nc2nc(C)nc3cc(OC)c(OC)cc23)c1
2. CC(C)n1nc(-c2ccc3oc(N)nc3c2)c2c(N)ncnc21 + CNCc1ccccc1-c1csc(C(C)Nc2nc(C)nc3cc(OC)c(OC)cc23)c1
3. CC1COCCN1c1cc(-c2ccnn2C)c2ccnc(-c3ccn[nH]3)c2n1 (stereo unspecified) + CC1OCC2(CCN(c3cnc(Sc4ccnc(N)c4Cl)c(N)n3)CC2)C1N
4. CC(C)n1nc(-c2ccc3oc(N)nc3c2)c2c(N)ncnc21 + COc1cc2nc(C)nc(NC(C)c3cc(N)cc(C(F)(F)F)c3)c2cc1OC1CCOC1
5. CN(C)C/C=C/C(=O)Nc1cc2c(Nc3ccc(F)c(Cl)c3)ncnc2cc1O[C@H]1CCOC1 + C=CC(=O)N1CCN(c2nc(=O)n(-c3c(C)ccnc3C(C)C)c3nc(-c4c(O)cccc4F)c(F)cc23)C(C)C1

Out:
0.44%
0.33%
7.07%
9.84%
13.3%
